Entry source: PubChem BioAssay (NCI)

system: SF-539 CNS; test: NCI tumour cell line growth inhibition, 48 h
reported.metric: TGI

compound | result
C[C@@]12CCCC(=O)N1[C@@H](CO)C(c1ccccc1)O2 (stereo not given in full) | > 100 µM
C/C(=N/NC(=O)CC(=O)N(C(=O)c1ccccc1Cl)c1ccc(C)cc1)c1cc2ccccc2oc1=O | > 100 µM
NC(=S)N/N=C\CC(O)(C(F)(F)F)C(F)(F)F | > 10 µM
O=C1/C(=C\c2cccc(Oc3ccccc3)c2)SC(c2ccccc2)N1c1cccc([N+](=O)[O-])c1 (stereo not given) | 63.3 µM
CCN(CC)CCCCC1CCN(CC(=O)N2c3ccccc3NC(=O)CC2C)CC1 (stereo not given) | > 100 µM
O=S1(=O)CCN(c2ccccc2CC(c2c[nH]c3ccccc23)c2c[nH]c3ccccc23)CC1 | 32 µM
CC(=O)CC1(C)OC(N)=C(C#N)C1(C#N)C#N (stereo not given) | > 100 µM
O=C(c1ccco1)C1CC(c2ccc3ccccc3c2O)=NN1c1ccc([N+](=O)[O-])cc1[N+](=O)[O-] (stereo not given) | > 100 µM
CC1(C)CCC2(C(=O)OC3OC(CO)C(O)C(O)C3O)CCC3(CO)C(=CCC4C5(C)CC(O)C(O)C(C)(C(=O)OC6OC(CO)C(O)C(O)C6O)C5CCC43C)C2C1 (stereo not given) | > 100 µM
CNc1ccc(S(=O)Nc2ccccc2)cc1 (stereo not given) | > 100 µM

* * *

tested on: HT29 colon; assay: NCI tumour cell line growth inhibition, 48 h

compound | result.operator | TGI (µM)
CNc1ccc(S(=O)Nc2ccccc2)cc1 (configuration not stated) | > | 100
CCCNC(=O)CCC(C)[C@H]1CCC2C3C(C[C@H](OC(C)=O)[C@@]21C)[C@@]1(C)CCC2(C[C@H]1C[C@H]3OC(C)=O)OOC1(CCCCC1)OO2 (some centres not stated) | > | 90.8
CC12CC(c3ccccc3O1)C(C(=O)Nc1cccc(F)c1)C(=O)N2 (configuration not stated) | > | 100
CN(C)C/C=C/C(=O)Nc1ccc(C(=O)N2CCC[C@@H](Nc3ncc(Cl)c(-c4c[nH]c5ccccc45)n3)C2)cc1 | = | 4.2
CC(C)C1CC(CO)(CNc2cc(Cl)nc(N)n2)C1 (configuration not stated) | > | 100
C/C(=N/NC(=O)CC(=O)N(C(=O)c1ccccc1Cl)c1ccc(C)cc1)c1cc2ccccc2oc1=O | > | 100
C/C(=N/O)c1ccc2c(c1)C(=NO)c1cc(/C(C)=N/O)ccc1-2 | = | 30
NS(=O)(=O)c1cc(S(N)(=O)=O)c(NC(=O)N(c2ccccc2)c2ccccc2)c(Cl)c1Cl | = | 48.2
Nc1ncnc2c1c(-c1ccc(Oc3ccccc3)cc1)nn2C[C@@H]1SSC[C@@H]1O | = | 1.7
CCOCNc1ccc(N2C(=O)/C(=C/c3ccc(N(CC)CC)cc3)N=C2c2ccccc2)cc1 | > | 100
O=c1c2c(nc3n1CCC3)sc1c(O)c(Br)ccc12 | = | 33.1
COC(=O)c1c(OC)cc2cc3c(c(O)c2c1C)C(=O)C1(O)C(=O)C=C(OC)C(OC(=O)CC(C)N)=C1C3=O (configuration not stated) | = | 43.7
COc1ccc(/C=C(/C(=O)n2cnnn2)c2cc(OC)c(OC)c(OC)c2)cc1 | > | 100
C=C(CNCCc1ccc(O)cc1)[C@@H]1CC[C@]2(CO)CC[C@]3(C)[C@H](CC[C@@H]4[C@@]5(C)CCC(N)C(C)(C)[C@@H]5CC[C@]43C)[C@@H]12 (some centres not stated) | = | 1.81
CCN(CC)CCCCC1CCN(CC(=O)N2c3ccccc3NC(=O)CC2C)CC1 (configuration not stated) | > | 100
CC1(C)COC(c2c(-c3ccccc3)noc2CS(=O)c2ccccc2)=N1 (configuration not stated) | > | 100
C[C@@]12CCCC(=O)N1[C@@H](CO)C(c1ccccc1)O2 (some centres not stated) | > | 100
CCCCCCCCCC(=O)Oc1cccc2onc(C)c12 | > | 100
N#CCCC1(CCC#N)CCCCCCC(CCC#N)(CCC#N)C(O)C1O (configuration not stated) | > | 100
O=S1(=O)CCN(c2ccccc2CC(c2c[nH]c3ccccc23)c2c[nH]c3ccccc23)CC1 | = | 23.3
CCOC(=O)CCCn1cc(C(=O)OC)nn1 | > | 100
Cc1cc(=O)[nH]c(NNC(C#N)c2ccc([N+](=O)[O-])cc2)n1 (configuration not stated) | > | 100
Cc1cc(=O)oc2cc(OCCn3c(C)nn(-c4ccc(Cl)cc4)c3=O)ccc12 | > | 100
CC1(C)C2CCC13C(=O)C1OC3(C2)C2C(=O)c3c(O)cccc3C(=O)C12 (configuration not stated) | = | 9.4
O=C(/C=C/c1ccco1)c1cccc(C(=O)/C=C/c2ccco2)n1 | = | 37.4
c1cnc2[nH]cc(-c3csc(-c4cn(CCCN5CCCCC5)c5ccccc45)n3)c2c1 | = | 3.44
NC(=O)c1c[se]c(C2OC(COP(=O)(O)CP(=O)(O)OCC3OC(n4cnc5c(N)ncnc54)C(O)C3O)C(O)C2O)n1 (configuration not stated) | > | 100

* * *

test system: MDA-MB-435
Outcome codes: active, inactive

molecule | cat
Cc1cc(=O)oc2cc(OCCn3c(C)nn(-c4ccc(Cl)cc4)c3=O)ccc12 | active
O=C(O)C1C(C(=O)O)C2(Cl)C(Cl)=C(Cl)C1(Cl)C2(Cl)Cl.[Cd] (stereo not drawn) | inactive
C[C@@H]1C/C=C\C(=O)O[C@H](/C=C/C#C/C=C/C(C)(C)[C@@H](O)c2cccc(O)c2Br)[C@@H](C)/C=C/[C@H](C)C[C@H](OC(N)=O)C1 | active
Oc1[nH]c2ccccc2c1/C=c1/cc2c(c(-c3ccc(C(F)(F)F)cc3)n1)=Nc1ccccc1-2 | active
Fc1cc(-c2nnc3n2N=C(c2ccc(Cl)cc2Cl)CS3)c(Cl)cc1Cl | inactive
COC(=O)[C@H](Cc1ccccc1)NC(=O)c1csc([C@@H](C[C@H](C(C)C)N(C)C(=O)[C@@H](NC(=O)[C@H]2CCCN2C)C2CC2)OC(C)=O)n1 | active
CCc1cccc(CC)c1/C=C/c1cncc(C(=O)NC)c1 | inactive
Fc1c[c-]c(-c2ccccn2)c(F)c1.[CH3-].[Pt+2].c1ccc(P(C[PH+](c2ccccc2)c2ccccc2)c2ccccc2)cc1 | inactive
COc1ccccc1/C=C\C(=O)c1ccccc1 | inactive
CN(C)C/C=C/C(=O)Nc1ccc(C(=O)N2CCC[C@@H](Nc3ncc(Cl)c(-c4c[nH]c5ccccc45)n3)C2)cc1 | active
COc1ccc(C2ONC3=NCCN32)cc1 (stereo not drawn) | inactive
COc1ccc2[nH]c(-c3ccccc3)cc2c1 | inactive
COc1ccc2c(c1)nc1n2C(c2ccc(F)cc2)SC1 (stereo not drawn) | inactive

* * *

Here the recorded GI50 is given for each entry.
test system: SF-295 CNS; test: NCI tumour cell line growth inhibition, 48 h

compound | GI50
C1=C2CNCC3=Cc4ccc5ccccc5c4OC23Oc2c1ccc1ccccc21 | 3.07 µM
CN(C)C/C=C/C(=O)Nc1ccc(C(=O)N2CCC[C@@H](Nc3ncc(Cl)c(-c4c[nH]c5ccccc45)n3)C2)cc1 | 0.685 µM
C=CC1=CC(C)C[C@]1(O)C(=O)OC (stereo partly drawn) | > 100 µM

* * *

test system: HT29 colon; assay: NCI tumour cell line growth inhibition, 48 h

compound | assay.system | GI50
COc1cc2cc(Oc3ccc(NC(=O)c4cccc5c4OCCO5)cc3)c(C)nc2cc1OC | HT29 colon | 6.12 µM
CCN(CC)CCOc1ccc(/C=C2\CC3C4CC=C5C[C@@H](OC(C)=O)CC[C@]5(C)C4CC[C@]3(C)C2=O)cc1OC (stereo not given in full) | HT29 colon | 4.07 µM
COc1ccccc1/C=C\C(=O)c1ccccc1 | HT29 colon | 3.9 µM
CC(C)(C)CC(C)(C)c1ccc(OCCOCC[N+](C)(C)Cc2ccccc2)cc1 | HT29 colon | 1.14 µM
C=CC1=CC(C)C[C@]1(O)C(=O)OC (stereo not given in full) | HT29 colon | > 100 µM

* * *

test system: SF-268 CNS; test: NCI tumour cell line growth inhibition, 48 h

compound | TGI
CC1(C)[C@@H]2CC[C@@]1(C)[C@H](O)[C@@H]2SCc1ccccc1 | 32.6 µM
CC(C)(C)CC(C)(C)c1ccc(OCCOCC[N+](C)(C)Cc2ccccc2)cc1 | 5.92 µM
CC(C)(C)c1cc(CCC(=O)Nc2ccc(Cl)cc2Cl)nc(N)n1 | > 100 µM
COc1ccc(/C=C/C(=O)C(C)(C)Br)cc1 | 34.7 µM
CNc1ccc(S(=O)Nc2ccccc2)cc1 (stereo not drawn) | > 100 µM
CC1(C)CCC2(C(=O)OC3OC(CO)C(O)C(O)C3O)CCC3(CO)C(=CCC4C5(C)CC(O)C(O)C(C)(C(=O)OC6OC(CO)C(O)C(O)C6O)C5CCC43C)C2C1 (stereo not drawn) | > 100 µM
NS(=O)(=O)c1ccc(NC(=O)c2cccn3c(=O)c4ccccc4nc23)cc1 | > 100 µM
CC1=C(C(=O)CC(=O)C(=O)NC2C3CC4CC(C3)CC2C4)Sc2ccccc2N1 (stereo not drawn) | > 100 µM
CCN(CC)CCCCC1CCN(CC(=O)N2c3ccccc3NC(=O)CC2C)CC1 (stereo not drawn) | > 100 µM
CC(=O)CC1(C)OC(N)=C(C#N)C1(C#N)C#N (stereo not drawn) | > 100 µM
CCN(CC)CCOc1ccc(/C=C2\CC3C4CC=C5C[C@@H](OC(C)=O)CC[C@]5(C)C4CC[C@]3(C)C2=O)cc1OC (stereo partly drawn) | 18.4 µM
O=[N+]([O-])/C=C/c1cn(CCCCCn2cc(/C=C/[N+](=O)[O-])c3ccccc32)c2ccccc12 | 15.6 µM
CCOC(=O)/C(C#N)=C/N(CC)/N=C/c1ccccc1 | > 100 µM
